Data origin, for the record: patent US20030190365A1

Quick list: Tapped Density per entry.
assay.remarks: As-is and tapped density of bulk drug and dried granulations (Van Kel tap density tester)
Format: physicochemical
condition.details: Example 3
Hi! Could you send only the number? It should be in g/cc, unit omitted.

Consider the worked cases shown below.
CC[C@H]1OC(=O)[C@H](C)[C@@H](O[C@H]2C[C@@](C)(OC)[C@@H](O)[C@H](C)O2)[C@H](C)[C@@H](O[C@@H]2O[C@H](C)C[C@H](N(C)C)[C@H]2O)[C@](C)(O)C[C@@H](C)CN(C)[C@H](C)[C@@H](O)[C@]1(C)O [form N, azithromycin]; 0.600
CCC1OC(=O)C(C)C(O[C@H]2C[C@@](C)(OC)[C@@H](O)C(C)O2)C(C)[C@@H](OC2OC(C)CC(N(C)C)[C@H]2O)[C@@](C)(O)C[C@@H](C)CN(C)[C@H](C)[C@@H](O)[C@]1(C)O (stereo partly shown) [form F]; 0.439
CCC1OC(=O)C(C)C(O[C@H]2C[C@@](C)(OC)[C@@H](O)C(C)O2)C(C)[C@@H](OC2OC(C)CC(N(C)C)[C@H]2O)[C@@](C)(O)C[C@@H](C)CN(C)[C@H](C)[C@@H](O)[C@]1(C)O (stereo partly shown) [form J]; 0.649

Field request: Tapped Density | item: CCC1OC(=O)C(C)C(O[C@H]2C[C@@](C)(OC)[C@@H](O)C(C)O2)C(C)[C@@H](OC2OC(C)CC(N(C)C)[C@H]2O)[C@@](C)(O)C[C@@H](C)CN(C)[C@H](C)[C@@H](O)[C@]1(C)O (stereo partly shown) [form M]
0.514
